Entries and their IC50 values follow.
TARGET OF ASSAY: human MRGPRX2 (Homo sapiens)
Construct: expressed in transfected cells
TEST DESCRIPTION: MRGPRX2 antagonist activity, IP-One HTRF assay in CHO cells expressing human MRGPRX2 versus Cortistatin-14
Type: cell-based
CONDITION DESCRIPTION: CHO cells stably expressing human MRGPRX2; versus 0.3 uM Cortistatin-14 agonist; IP-1 HTRF readout; read-out: MRGPR2 Antagonist Activity

{"columns": ["COMPOUND", "IC50"],
 "data": [
  ["CC1=NN(c2ccc(C(=O)N[C@H]3CC[C@@H](Nc4cc(C(F)(F)F)nc(C(F)(F)F)c4)CC3)cc2)C(=O)C1 [4-33]", "100 to 500 nM"],
  ["O=C(N[C@H]1CC[C@@H](Nc2cc(C(F)(F)F)nc(C(F)(F)F)c2)CC1)c1cccc(O)c1 [4-28]", "100 to 500 nM"],
  ["Nc1nc(C(=O)N[C@H]2CC[C@@H](Nc3cc(C(F)(F)F)nc(C(F)(F)F)c3)CC2)cs1 [4-27]", "100 to 500 nM"],
  ["COc1ccc(C(=O)N[C@H]2CC[C@@H](Nc3cc(C(F)(F)F)nc(N(C)C)n3)CC2)cc1 [Example 16]", "501 to 1000 nM"]
]}

---

TARGET OF ASSAY: human MRGPRX2 (Homo sapiens)
Construct: expressed in transfected cells
TEST DESCRIPTION: MRGPRX2 antagonist activity, IP-One HTRF assay in CHO cells expressing human MRGPRX2 versus Cortistatin-14
Format: cell-based
CONDITION DESCRIPTION: CHO cells stably expressing human MRGPRX2; versus 0.3 uM Cortistatin-14 agonist; IP-1 HTRF readout; read-out: MRGPR2 Antagonist Activity
Procedure: CHO cells stably transfected to express human MRGPRX2 were maintained in an incubator at 37° C. with 5% CO2 and grown in F12 (HAM) media with 10% fetal bovine serum (FBS), 1% Glutamax, 1% penicillin/streptomycin, 800 μg/mL Geneticin (G418), and 300 μg/mL Hygromycin B. Cells were plated in a 384-well assay plate at 20,000 cells per well in 12 μL of Opti-MEM and kept in an incubator overnight. […] The plate was read on a Molecular Devices SpectraMax iD5 plate reader. […]
pIC50: −log10 of the molar value.
Entries and their pIC50 values follow.

{"columns": ["MOLECULE", "pIC50"],
 "data": [
  ["CNC(=O)Nc1cccc(C(=O)N[C@H]2CC[C@@H](Nc3cc(C(F)(F)F)nc(C(F)(F)F)c3)CC2)c1", "6.30 to 7.00"],
  ["Cc1cc(C(=O)N[C@H]2CC[C@@H](Nc3cc(C)c(C#N)c(C(F)(F)F)c3)CC2)cc(C)n1", "> 7.00"],
  ["N#Cc1ccc(N[C@H]2CC[C@@H](NC(=O)c3c[nH]c4cnccc34)CC2)cc1C(F)(F)F", "> 7.00"],
  ["N#Cc1ccc(N[C@H]2CC[C@@H](NC(=O)c3ccnc4[nH]ncc34)CC2)cc1C(F)(F)F", "> 7.00"],
  ["N#Cc1ccc(N[C@H]2CC[C@@H](NC(=O)c3cn[nH]c3C3CC3)CC2)cc1C(F)(F)F", "> 7.00"],
  ["CN(C)c1cccc(C(=O)N[C@H]2CC[C@@H](Nc3ccc(C#N)c(C(F)(F)F)c3)CC2)c1", "6.30 to 7.00"],
  ["O=C(N[C@H]1CC[C@@H](Nc2cc(C(F)(F)F)nc(C(F)(F)F)c2)CC1)c1ccc(-n2cccn2)cc1", "6.30 to 7.00"],
  ["Cc1cc2c(C(=O)N[C@H]3CC[C@@H](Nc4ccc(C#N)c(C(F)(F)F)c4)CC3)ccnc2[nH]1", "> 7.00"],
  ["CNc1ccc(C(=O)N[C@H]2CC[C@@H](Nc3ccc(C#N)c(C(F)(F)F)c3)CC2)cc1", "> 7.00"],
  ["N#Cc1ccc(N[C@H]2CC[C@@H](NC(=O)c3cccc4ncsc34)CC2)cc1C(F)(F)F", "5.60 to 6.00"],
  ["CN(C)c1nc(N[C@H]2CC[C@@H](NC(=O)c3cccc(C#N)c3)CC2)cc(C(F)(F)F)n1", "5.60 to 6.00"],
  ["O=C(N[C@H]1CC[C@@H](Nc2cc(C(F)(F)F)nc(C(F)(F)F)c2)CC1)c1c[nH]c2ccccc12", "6.30 to 7.00"],
  ["O=C(N[C@H]1CC[C@@H](Nc2cc(C(F)(F)F)nc(C(F)(F)F)c2)CC1)c1ccc(-n2cnnn2)cc1", "6.30 to 7.00"],
  ["O=C(N[C@H]1CC[C@@H](Nc2cc(C(F)(F)F)nc(C(F)(F)F)c2)CC1)c1cccc2[nH]ccc12", "6.30 to 7.00"],
  ["CCN(C)c1nc(N[C@H]2CC[C@@H](NC(=O)c3ccc(N(C)C)cc3)CC2)cc(C(F)(F)F)n1", "6.30 to 7.00"],
  ["CC(=O)Nc1cccc(C(=O)N[C@H]2CC[C@@H](Nc3cc(C(F)(F)F)nc(C(F)(F)F)c3)CC2)c1", "6.30 to 7.00"],
  ["O=C(N[C@H]1CC[C@@H](Nc2cc(C(F)(F)F)nc(C(F)(F)F)c2)CC1)c1ccc(N2CCCC2)cc1", "6.30 to 7.00"],
  ["CNc1ccc(C(=O)N[C@H]2CC[C@@H](Nc3cc(C)c(C#N)c(C(F)(F)F)c3)CC2)cc1", "> 7.00"],
  ["O=C(N[C@H]1CC[C@@H](Nc2cc(C(F)(F)F)nc(C(F)(F)F)c2)CC1)c1ccc(Cl)cc1Cl", "6.00 to 6.30"],
  ["CN(C)c1ccc(C(=O)N[C@H]2CC[C@@H](Nc3ccc(C#N)c(C(F)(F)F)c3)CC2)c(F)c1", "6.30 to 7.00"]
]}

---

TARGET OF ASSAY: human MRGPRX2 (Homo sapiens, UniProt Q96LB1)
Construct: expressed in transfected cells
Sequence (Q96LB1 whole entry): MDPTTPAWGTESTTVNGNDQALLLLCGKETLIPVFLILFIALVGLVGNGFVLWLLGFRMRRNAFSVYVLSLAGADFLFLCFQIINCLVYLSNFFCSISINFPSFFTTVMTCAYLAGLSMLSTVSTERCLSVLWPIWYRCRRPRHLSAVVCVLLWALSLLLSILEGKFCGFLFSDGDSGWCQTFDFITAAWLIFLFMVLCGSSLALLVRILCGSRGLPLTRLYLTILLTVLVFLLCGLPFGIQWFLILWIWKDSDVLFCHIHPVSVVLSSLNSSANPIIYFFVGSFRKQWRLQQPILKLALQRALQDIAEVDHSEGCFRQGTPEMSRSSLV
TEST DESCRIPTION: MRGPRX2 antagonist activity, IP-One HTRF assay in CHO cells expressing human MRGPRX2 versus Cortistatin-14
Format: cell-based
CONDITION DESCRIPTION: CHO cells stably expressing human MRGPRX2; versus 0.3 uM Cortistatin-14 agonist; IP-1 HTRF readout; read-out: MRGPR2 Antagonist Activity
pIC50: −log10 of the molar value.
Entries and their pIC50 values follow.
READOUT LABEL: pIC50

{"columns": ["MOLECULE", "READOUT LABEL", "OBS VALUE"],
 "data": [
  ["CN(CC(F)F)c1ccc(C(=O)N[C@H]2CC[C@@H](Nc3ccc(C#N)c(C(F)(F)F)c3)CC2)cc1", "pIC50", "> 7.00"],
  ["O=C(N[C@H]1CC[C@@H](Nc2cc(C(F)(F)F)nc(C(F)(F)F)c2)CC1)c1cc2c([nH]1)CCCC2", "pIC50", "6.00 to 6.30"],
  ["CN(C)c1ccc(C(=O)N[C@H]2CC[C@@H](Nc3ccc(C#N)c(C(F)(F)F)c3)CC2)cc1", "pIC50", "> 7.00"],
  ["N#Cc1ccc(N[C@H]2CC[C@@H](NC(=O)c3cn[nH]c3C(F)(F)F)CC2)cc1C(F)(F)F", "pIC50", "> 7.00"],
  ["Cc1cn(-c2ccc(C(=O)N[C@H]3CC[C@@H](Nc4ccc(C#N)c(C(F)(F)F)c4)CC3)cc2)cn1", "pIC50", "> 7.00"],
  ["N#Cc1ccc(N[C@H]2CC[C@@H](NC(=O)c3cnn(CC(F)(F)F)c3)CC2)cc1C(F)(F)F", "pIC50", "> 7.00"],
  ["O=C(N[C@H]1CC[C@@H](Nc2cc(C(F)(F)F)nc(C(F)(F)F)c2)CC1)c1ccc(N2CCS(=O)(=O)CC2)cc1", "pIC50", "6.30 to 7.00"],
  ["O=C(N[C@H]1CC[C@@H](Nc2nc(C(F)(F)F)nc3c2CCCC3)CC1)c1ccc(F)cc1", "pIC50", "5.60 to 6.00"],
  ["Cc1cc(C)n(-c2ccc(C(=O)N[C@H]3CC[C@@H](Nc4cc(C(F)(F)F)nc(C(F)(F)F)c4)CC3)cc2)n1", "pIC50", "6.00 to 6.30"],
  ["COc1cc(N[C@H]2CC[C@@H](NC(=O)c3ccc(F)cc3)CC2)nc(C(F)(F)F)n1", "pIC50", "5.60 to 6.00"],
  ["O=C(N[C@H]1CC[C@@H](Nc2cc(C(F)(F)F)nc(C(F)(F)F)c2)CC1)c1ccc2nccn2c1", "pIC50", "6.30 to 7.00"],
  ["CC(C)S(=O)(=O)Nc1ccc(C(=O)N[C@H]2CC[C@@H](Nc3ccc(C#N)c(C(F)(F)F)c3)CC2)cc1", "pIC50", "> 7.00"],
  ["COc1ccc(C(=O)N[C@H]2CC[C@@H](Nc3cc(C(F)F)nc(C(F)(F)F)c3)CC2)cc1", "pIC50", "6.30 to 7.00"],
  ["CNC(=O)c1ccc(C(=O)N[C@H]2CC[C@@H](Nc3ccc(C#N)c(C(F)(F)F)c3)CC2)cc1", "pIC50", "> 7.00"]
]}
